Test: qHTS of pediatric cancer cell lines to identify multiple opportunities for drug repurposing: Primary screen for NB1643 cells (AID 1347099); further: nearly all actives have a fitted effect of over 50% in size
Details: NB1643 neuroblastoma viability, CellTiter-Glo luminescence, 48 h; series mostly up to 46 µM
Results filed as inconclusive are left out. Activity calls are given as the source filed them. The call rests on the fitted dose curve; in most records, active means well fitted cell-killing curve with a large enough effect; inconclusive means small, poorly fitted or top-dose-only effect; inactive means no such curve, though single readings can be large or run the other way.
Field 'call' accepts true for active, false for inactive

Worked cases, answers included:
Task: Which result was noted for this compound in the test: C[C@](O)(COc1ccc(C#N)cc1)C(=O)Nc1ccc(C#N)c(C(F)(F)F)c1
Output: true

Task: Next compound: CC(=O)O[C@@]12CO[C@H]1C[C@H](O)[C@@]1(C)C(=O)[C@H](O)C3=C(C)[C@@H](O)C[C@@](O)([C@@H](OC(=O)c4ccccc4)[C@@H]21)C3(C)C
Output: false

Task: Next compound: CC1=C(O)C(=O)C=C2C1=CC=C1[C@@]2(C)CC[C@@]2(C)[C@@H]3C[C@](C)(C(=O)O)CC[C@]3(C)CC[C@]12C
Output: true

Task: Next compound: COC1=CC(C)=C[C@@H](C)[C@@H](O)[C@@H](C)CC(C)=CC=C[C@H](OC)[C@H]([C@@H](C)[C@@H](O)[C@H](C)[C@@]2(O)C[C@@H](O)[C@H](C)[C@@H](C(C)C)O2)OC1=O
Output: true

Task: Next compound: CC(C)Oc1cccc(NC(=O)c2ccccc2C(F)(F)F)c1
Output: false

Task: Next compound: CCCC[N+]1(C)[C@H]2CC(OC(=O)[C@H](CO)c3ccccc3)C[C@H]1[C@H]1O[C@H]12 (stereo partly drawn)
Output: false

Task: Next compound: O=C(O)C(Cl)Cl
Output: false

Consider the additional compound presented here.
Task: Which result was noted for this compound in the test: CCOCCOC(C)=O
Output: false

---

Assay: Primary qHTS for Huh7 cytotoxicity: counterscreen for inhibitors of MERS-S pseudotyped particle cell entry (AID 1479147)
Conditions: cell viability read-out; series mostly up to 57.1 µM
Records with an inconclusive call do not appear. The source made the active and inactive calls. Calls come from the whole dose curve.
Field 'call' accepts active, inactive

Worked cases, answers included:
Task: Which result was noted for this compound in the test: O=C(O)c1ccccn1
Output: inactive

Task: Next compound: N#CC[C@H](C1CCCC1)n1cc(-c2ncnc3[nH]ccc23)cn1
Output: inactive

Task: Next compound: CC(=O)N[C@@H](Cc1ccc(O)cc1)C(=O)O
Output: inactive

Consider the additional compound presented here.
Task: Which result was noted for this compound in the test: CCCCCCCCCCCCCC(=O)OC(C)C
Output: inactive

---

Assay: Quantitative High-Throughput drug screen in 47 multiple myeloma cell lines against the NCATS MIPE library collection: KMS28BM_JCRB cell viability assay (AID 1919874); further: nearly all actives have a fitted effect of over 35% in size; further: potency means the concentration at half of the fitted maximal effect
Conditions: CellTiter-Glo ATP, 48 h; series mostly up to 45.8 µM
Inconclusive results are not listed. The source made the active and inactive calls. The call rests on the fitted dose curve; in most records, active means well fitted cell-killing curve with a large enough effect; inconclusive means small, poorly fitted or top-dose-only effect, or effect the other way; inactive means no such curve, though single readings can be large or run the other way.
parameter: Potency

Task: // Potency lookup, key: C=C1C[C@H]2[C@H]3CCC(=O)[C@@]3(C)CC[C@@H]2[C@@]2(C)C=CC(=O)C=C12
Output: inactive

Task: Next compound: Cc1nc(-c2ccc(-c3ccc(C(=O)N4CCc5cc6c(cc54)C4(CCN(C)CC4)CO6)cc3)c(C)c2)no1
Output: inactive

Task: Next compound: CC(=CCCC1=CCC(C2=CC(=O)OC2O)OC1O)CCC1=C(C)CCCC1(C)C (centres undefined)
Output: 2.64 µM (active)

Task: Next compound: CCN1CCN(C(=O)Cc2ccc(Nc3ncc(F)c(Nc4ccc(C(=O)Nc5ccccc5Cl)cc4)n3)cc2)CC1
Output: 1.87 µM (active)

Task: Next compound: CCN1C[C@]2(OC(=O)c3ccccc3NC(C)=O)CC[C@H](OC)[C@@]34[C@H]5CC6[C@@H](OC)C[C@](O)(C(C[C@@H]23)[C@@H]14)[C@@]5(O)[C@@H]6OC
Output: inactive

Items follow; give Potency for each.
1. C1=C2CCCN[C@H]2[C@@H]2C[C@H]1[C@@H]1CCCCN1C2
2. C=C[C@@H]1CN2CCC1C[C@@H]2[C@@H](O)c1ccnc2ccccc12 (some centres undefined)

Output:
inactive
23.5 µM (active)

Items follow; give Potency for each.
1. CC(C)N(CCNC(=O)CN1CCCC1=O)C(C)C
2. N#C[C@H](O[C@@H]1O[C@H](CO[C@@H]2O[C@H](CO)[C@H](O)[C@H](O)[C@H]2O)[C@H](O)[C@H](O)[C@H]1O)c1ccccc1
3. COC[C@H]1OC(=O)c2coc3c2[C@@]1(C)C1=C(C3=O)[C@@H]2CC[C@H](O)[C@@]2(C)C[C@@H]1OC(C)=O
4. CCCCCC[C@H]1C(=O)O[C@H](C)[C@H](NC(=O)c2cccc(NC=O)c2O)C(=O)O[C@@H](C)[C@@H]1OC(=O)CC(C)C
5. C[C@@H]1[C@H](O)[C@@H](C)C=CC=CCCC=CC=CC=CC=C[C@H](O[C@H]2O[C@@H](C)[C@H](O)[C@@H](N)[C@@H]2O)CC2O[C@](O)(C[C@@H](O)[C@H](O)CC[C@@H](O)C[C@@H](O)C[C@@H](O)CC(=O)O[C@H]1C)C[C@H](O)[C@H]2C(=O)O
6. CSCC[C@@H](NC(=O)[C@@H](Cc1ccccc1)NC(=O)CNC(=O)CNC(=O)[C@@H](N)Cc1ccc(O)cc1)C(=O)O
7. CC(=Cc1csc(C)n1)[C@@H]1C[C@H]2O[C@]2(C)CCC[C@H](C)[C@@H](O)[C@@H](C)C(=O)C(C)(C)[C@@H](O)CC(=O)O1

Output:
inactive
18.7 µM (active)
9.35 µM (active)
0.209 µM (active)
inactive
inactive
inactive

Items follow; give Potency for each.
1. CC[C@@H]1[C@@H](C)O[C@@](O)([C@@H](C)[C@H](O)[C@H](C)[C@H]2OC(=O)C=CC=C[C@@H](C)[C@@H]([C@@H](C)[C@@H](O)[C@H](C)[C@@]3(O)C[C@H](O[C@H]4C[C@H](O)[C@H](O)[C@H](C)O4)[C@H](CC)[C@@H](C)O3)OC(=O)C=CC=C[C@@H]2C)C[C@H]1O[C@H]1C[C@H](O)[C@H](O)[C@H](C)O1
2. CCNC(=O)CC1N=C(c2ccc(Cl)cc2)c2cc(OC)ccc2-n2c(C)nnc21 (centres undefined)
3. Cc1c(C(=O)c2cccc3ccccc23)c2cccc3c2n1[C@H](CN1CCOCC1)CO3
4. Cc1c(C(=O)Nc2cccc(C(F)(F)F)c2)cc(-c2ccccc2)n1CCCN1CCOCC1
5. Cc1[nH]nc2ccc(-c3cncc(OC[C@@H](N)Cc4c[nH]c5ccccc45)c3)cc12
6. Oc1ccc2c3c1O[C@H]1c4[nH]c5c(c4C[C@@]4(O)[C@@H](C2)N(CC2CC2)CC[C@]314)C[C@@]1(O)[C@H]2Cc3ccc(O)c4c3[C@@]1(CCN2CC1CC1)[C@H]5O4
7. C[C@@]12OC(=O)[C@]1([C@@H](O)[C@@H]1C=CCCC1)NC(=O)[C@H]2CCCl

Output:
["0.372 µM (active)", "18.7 µM (active)", "23.5 µM (active)", "5.9 µM (active)", "0.296 µM (active)", "inactive", "0.0093 µM (active)"]

Items follow; give Potency for each.
1. CO[C@H]1CCC(O[C@H]2C[C@H]([C@]3(C)CC[C@]4(C[C@H](O)[C@@H](C)[C@@H]([C@@H](C)C=C(C)C(=O)[C@H](C)C[C@H](C)C(=O)O)O4)O3)O[C@]3(O[C@@H]([C@H]4O[C@@](O)(CO)[C@H](C)C[C@H]4C)C[C@H]3C)[C@H]2C)O[C@H]1C (some centres undefined)
2. O=C(O)CNC(=O)c1c(O)c2ccccc2n(Cc2ccccc2)c1=O
3. COc1cc2cc(c1Cl)N(C)C(=O)C[C@H](OC(=O)C(C)C)[C@]1(C)O[C@H]1[C@H](C)[C@@H]1C[C@@](O)(NC(=O)O1)[C@H](OC)C=CC=C(C)C2
4. O=C(NCC1CCOCC1)c1cnc(Nc2ccc(Cl)cc2Cl)nc1C(F)(F)F

Output:
["0.332 µM (active)", "inactive", "inactive", "inactive"]

Items follow; give Potency for each.
1. C#CC1(O)CCC2C3CCC4=CC(=O)CCC4(C)C3CCC21C (centres undefined)
2. C[C@@H]1O[C@@H](O[C@@H]2C=C3CC[C@@H]4[C@@H](CC[C@]5(C)[C@H](c6ccc(=O)oc6)CC[C@@]45O)[C@@]3(C)CC2)[C@H](O)[C@H](O)[C@H]1O

Output:
18.7 µM (active)
0.0083 µM (active)

Items follow; give Potency for each.
1. CCc1c(C(=O)C(N)=O)c2c(OCC(=O)O)cccc2n1Cc1ccccc1
2. CC(C)[C@]12O[C@@H]1[C@@H]1O[C@]13[C@]1(O[C@H]1C[C@@H]1C4=C(CC[C@@]13C)C(=O)OC4)[C@H]2O

Output:
1. inactive
2. inactive
